molecular target: TetR mutant (Escherichia coli, UniProt P04483, H139W); test: Fluorescence polarization assay (FPA) with TetR mutant
Readings of IC50 for the listed compounds
I only need the number, in nM, no unit after it.

Field: example entries. Status: answers known.
1) C=C1c2cccc(O)c2C(=O)C2=C(O)[C@]3(O)C(=O)C(C(N)=O)=C(O)[C@@H](N(C)C)[C@@H]3[C@@H](O)[C@H]12 [MTC, Methacycline] = 110
2) CN(C)[C@@H]1C(O)=C(C(N)=O)C(=O)[C@@]2(O)C(O)=C3C(=O)c4c(O)ccc(Cl)c4[C@@H](O)[C@H]3C[C@@H]12 [DMC, demeclocycline] = 33.3
3) CN(C)[C@@H]1C(O)=C(C(N)=O)C(=O)[C@@]2(O)C(O)=C3C(=O)c4c(O)cccc4[C@@](C)(O)[C@H]3[C@H](O)[C@@H]12 [OTC, oxytetracycline] = 78.2
4) CN(C)c1ccc(O)c2c1C[C@H]1C[C@H]3[C@H](N(C)C)C(O)=C(C(N)=O)C(=O)[C@@]3(O)C(O)=C1C2=O [MC, minocycline] = 52
5) CN(C)[C@@H]1C(O)=C(C(N)=O)C(=O)[C@@]2(O)C(O)=C3C(=O)c4c(O)ccc(Cl)c4[C@@](C)(O)[C@H]3C[C@@H]12 [CTC, chlortetracycline] = 115

Short answer for CN(C)[C@@H]1C(O)=C(C(N)=O)C(=O)[C@@]2(O)C(O)=C3C(=O)c4c(O)cccc4[C@@](C)(O)[C@H]3C[C@@H]12 [TC, tetracycline] : IC50 was 85.5

Short answer for CN(C)c1cc(NC(=O)CNC(C)(C)C)c(O)c2c1C[C@H]1C[C@H]3[C@H](N(C)C)C(O)=C(C(N)=O)C(=O)[C@@]3(O)C(O)=C1C2=O [TIC, tigecycline] : IC50 was 27.3

Short answer for CN(C)[C@@H]1C(O)=C(C(=O)NCNCCCC[C@H](N)C(=O)O)C(=O)[C@@]2(O)C(O)=C3C(=O)c4c(O)cccc4[C@@](C)(O)[C@H]3C[C@@H]12 [LMC, Lymecycline] : IC50 was 75.8

Short answer for CN(C)[C@@H]1C(O)=C(C(N)=O)C(=O)[C@@]2(O)C(O)=C3C(=O)c4c(O)cccc4C[C@H]3C[C@@H]12 [SC, Sancycline] : IC50 was 70

Short answer for C[C@H]1c2cccc(O)c2C(=O)C2=C(O)[C@]3(O)C(=O)C(C(N)=O)=C(O)[C@@H](N(C)C)[C@@H]3[C@@H](O)[C@@H]21 [DC, doxycycline] : IC50 was 68.2

----------
molecular target: natural TetR (Escherichia coli, UniProt P04483); construct: made in house; assay: Surface plasmon resonance affinity, natural TetR; type: binding; conditions: KD (equilibrium dissociation constant, Kd/Ka), TetR without Mg2+, SPR
Readings of pKd for the listed molecules
Scale: negative log10 of molar concentration, which is what pKd denotes.

1. CN(C)c1ccc(O)c2c1C[C@H]1C[C@H]3[C@H](N(C)C)C(O)=C(C(N)=O)C(=O)[C@@]3(O)C(O)=C1C2=O [MC, minocycline] = 6.95
2. CN(C)[C@@H]1C(O)=C(C(N)=O)C(=O)[C@@]2(O)C(O)=C3C(=O)c4c(O)ccc(Cl)c4[C@@H](O)[C@H]3C[C@@H]12 [DMC, demeclocycline] = 7.13
3. CN(C)[C@@H]1C(O)=C(C(N)=O)C(=O)[C@@]2(O)C(O)=C3C(=O)c4c(O)cccc4C[C@H]3C[C@@H]12 [SC, Sancycline] = 7.23

Reported pKd (natural TetR (Escherichia coli, UniProt P04483)) for entry CN(C)c1cc(NC(=O)CNC(C)(C)C)c(O)c2c1C[C@H]1C[C@H]3[C@H](N(C)C)C(O)=C(C(N)=O)C(=O)[C@@]3(O)C(O)=C1C2=O [TIC, tigecycline] is 7.98

Reported pKd (natural TetR (Escherichia coli, UniProt P04483)) for entry C=C1c2cccc(O)c2C(=O)C2=C(O)[C@]3(O)C(=O)C(C(N)=O)=C(O)[C@@H](N(C)C)[C@@H]3[C@@H](O)[C@H]12 [MTC, Methacycline] is 6.95

Reported pKd (natural TetR (Escherichia coli, UniProt P04483)) for entry CN(C)[C@@H]1C(O)=C(C(=O)NCNCCCC[C@H](N)C(=O)O)C(=O)[C@@]2(O)C(O)=C3C(=O)c4c(O)cccc4[C@@](C)(O)[C@H]3C[C@@H]12 [LMC, Lymecycline] is 6.44

Reported pKd (natural TetR (Escherichia coli, UniProt P04483)) for entry CN(C)[C@@H]1C(O)=C(C(N)=O)C(=O)[C@@]2(O)C(O)=C3C(=O)c4c(O)cccc4[C@@](C)(O)[C@H]3[C@H](O)[C@@H]12 [OTC, oxytetracycline] is 6.02

Reported pKd (natural TetR (Escherichia coli, UniProt P04483)) for entry C[C@H]1c2cccc(O)c2C(=O)C2=C(O)[C@]3(O)C(=O)C(C(N)=O)=C(O)[C@@H](N(C)C)[C@@H]3[C@@H](O)[C@@H]21 [DC, doxycycline] is 7.68

Reported pKd (natural TetR (Escherichia coli, UniProt P04483)) for entry CN(C)[C@@H]1C(O)=C(C(N)=O)C(=O)[C@@]2(O)C(O)=C3C(=O)c4c(O)cccc4[C@@](C)(O)[C@H]3C[C@@H]12 [TC, tetracycline] is 5.11

Reported pKd (natural TetR (Escherichia coli, UniProt P04483)) for entry CN(C)[C@@H]1C(O)=C(C(N)=O)C(=O)[C@@]2(O)C(O)=C3C(=O)c4c(O)ccc(Cl)c4[C@@](C)(O)[C@H]3C[C@@H]12 [CTC, chlortetracycline] is 5.30
